B1: library; numbered along this chain (parent)
chain: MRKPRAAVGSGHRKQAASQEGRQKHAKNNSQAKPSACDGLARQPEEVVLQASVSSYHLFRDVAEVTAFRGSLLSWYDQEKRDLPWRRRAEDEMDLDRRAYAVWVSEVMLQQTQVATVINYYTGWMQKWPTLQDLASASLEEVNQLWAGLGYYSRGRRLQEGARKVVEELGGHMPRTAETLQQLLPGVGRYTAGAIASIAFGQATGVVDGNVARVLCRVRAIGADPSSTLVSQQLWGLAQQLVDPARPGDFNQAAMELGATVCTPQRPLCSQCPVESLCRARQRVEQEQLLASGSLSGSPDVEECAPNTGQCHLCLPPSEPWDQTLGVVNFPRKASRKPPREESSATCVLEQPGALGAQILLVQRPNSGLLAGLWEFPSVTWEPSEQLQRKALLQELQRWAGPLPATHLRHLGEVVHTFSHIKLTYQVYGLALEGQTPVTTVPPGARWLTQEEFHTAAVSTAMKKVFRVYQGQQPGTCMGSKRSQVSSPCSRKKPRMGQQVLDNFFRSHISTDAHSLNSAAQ

Variants of: B1
Test: 8OG:A repair function score (normalized; synonymous = 0, nonsense = -1) (normalized log-likelihood score); higher = more repair activity (WT-like);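 also: cells sorted at 72 h after reporter transfection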
Details: with 8OG:A DNA repair reporter (GFP) in HEK-293 MUTYH KO cells
parameter_measured: 8OG:A repair function score
Number only, please.

Examples with their reported 8OG:A repair function score follow.
1. I221V
-0.347
2. R163H
-0.238

Problem: For the variant `E79T` , give its measured 8OG:A repair function score value.
Solution: 0.00587

Problem: For the variant `W447L` , give its measured 8OG:A repair function score value.
Solution: -0.567
